- MEASURED ON: EP2 (Homo sapiens (Human))
- Sequence (P43116 whole entry): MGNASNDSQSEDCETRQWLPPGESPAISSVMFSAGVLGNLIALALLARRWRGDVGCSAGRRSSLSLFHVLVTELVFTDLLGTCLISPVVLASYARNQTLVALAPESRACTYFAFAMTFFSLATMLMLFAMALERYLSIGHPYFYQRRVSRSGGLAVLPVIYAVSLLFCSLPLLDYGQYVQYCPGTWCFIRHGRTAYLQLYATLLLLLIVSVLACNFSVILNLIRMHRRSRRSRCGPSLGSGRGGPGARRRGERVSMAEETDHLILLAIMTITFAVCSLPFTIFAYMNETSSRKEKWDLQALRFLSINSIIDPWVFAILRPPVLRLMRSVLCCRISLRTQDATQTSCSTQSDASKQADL
- ASSAY SUMMARY: EP2 cAMP EC50
Let's look at some molecules and their measured EC50.
Just the number in µM, nothing appended.

| SMILES STR | ENDPOINT UNIT | EC50 |
| --- | --- | --- |
| O=C(O)c1ccc(CCc2cccc3c2C(Cc2cc(Cl)cc(Cl)c2)=CC3)cc1 | µM | 0.002 |
| COc1cc(CC2=CCCc3cccc(CCc4ccc(C(=O)O)cc4)c32)cc(OC)c1 | µM | 0.13 |
| COc1cc(CC2=CCc3cc(F)cc(CCc4ccc(C(=O)O)cc4)c32)cc(OC)c1 | µM | 0.036 |

Now consider a different molecule.
Prompt: What measured EC50 goes with COc1cc(CC2=CCc3cccc(CCc4ccc(C(=O)O)cc4)c32)cc(OC)c1 ?
Response: 0.011

----------
- MEASURED ON: EP4 (Homo sapiens (Human), UniProt P35408)
- Sequence (P35408 whole entry): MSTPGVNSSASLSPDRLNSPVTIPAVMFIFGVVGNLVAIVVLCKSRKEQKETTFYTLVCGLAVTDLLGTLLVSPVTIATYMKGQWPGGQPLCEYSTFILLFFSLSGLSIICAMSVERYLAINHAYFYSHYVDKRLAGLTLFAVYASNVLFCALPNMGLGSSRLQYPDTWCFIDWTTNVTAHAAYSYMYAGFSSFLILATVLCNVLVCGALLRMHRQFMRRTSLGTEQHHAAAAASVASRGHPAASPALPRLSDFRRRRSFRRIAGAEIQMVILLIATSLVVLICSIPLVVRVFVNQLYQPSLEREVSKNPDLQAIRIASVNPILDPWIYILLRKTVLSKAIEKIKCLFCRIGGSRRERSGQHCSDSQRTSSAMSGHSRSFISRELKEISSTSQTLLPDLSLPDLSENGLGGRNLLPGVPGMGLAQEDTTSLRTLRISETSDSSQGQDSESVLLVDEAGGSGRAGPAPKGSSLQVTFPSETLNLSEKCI
- ASSAY SUMMARY: EP4 radioligand binding (Ki), [3H]PGE2
- RUN PARAMETERS: EP4, HEK-293 membranes, read-out: EP4 Ki EC50
Let's look at some molecules and their measured EP4 Ki.
Just the number in nM, nothing appended.

Before answering, review these 4 worked examples.
| MOLECULE | EP4 Ki / nM |
| --- | --- |
| COc1cc(CC2=CCc3c(F)ccc(CCc4ccc(C(=O)O)cc4)c32)cc(OC)c1 [Entry 12] | 52 |
| O=C(O)c1ccc(CCc2cccc3c2N(Cc2cc(OCc4ccccc4)cc(OCc4ccccc4)c2)CC3)cc1 [Entry 7] | 5850 |
| COc1ccc(CC2=CCc3cccc(CCc4ccc(C(=O)O)cc4)c32)cc1 [Entry 9] | 195 |
| COc1cc(CC2=CCc3cccc(-c4cccc(/C=C/C(=O)O)c4)c32)cc(OC)c1 [Entry 20] | 1230 |

Prompt: Given the entry COc1cc(CC2=CCc3cccc(/C=C/c4ccc(C(=O)O)cc4)c32)cc(OC)c1 [Entry 21] , what EP4 Ki was observed with EP4 (Homo sapiens (Human), UniProt P35408)?
Response: 1200

Prompt: Given the entry COc1cc(CC2=CCc3cccc(-c4cccc(OCC(=O)O)c4)c32)cc(OC)c1 [Entry 22] , what EP4 Ki was observed with EP4 (Homo sapiens (Human), UniProt P35408)?
Response: 1170

Prompt: Given the entry COc1cc(CN2CCc3cccc(CCc4ccc(C(=O)O)s4)c32)cc(OC)c1 [Entry 13] , what EP4 Ki was observed with EP4 (Homo sapiens (Human), UniProt P35408)?
Response: 161

Prompt: Given the entry COc1cc(CC2=CCc3cccc(CCc4ccc(C(=O)O)cc4)c32)cc(OC)c1 [Entry 15] , what EP4 Ki was observed with EP4 (Homo sapiens (Human), UniProt P35408)?
Response: 0.8

Prompt: Given the entry O=C(O)c1ccc(CCc2cccc3c2C(Cc2cc(Cl)cc(Cl)c2)=CC3)cc1 [Entry 10] , what EP4 Ki was observed with EP4 (Homo sapiens (Human), UniProt P35408)?
Response: 56

Prompt: Given the entry COc1cc(OC)cc(S(=O)(=O)N2CCc3cccc(CCc4ccc(C(=O)O)cc4)c32)c1 [Entry 19] , what EP4 Ki was observed with EP4 (Homo sapiens (Human), UniProt P35408)?
Response: 8230

Prompt: Given the entry COc1cc(/C=C2\CCc3cccc(OCc4ccc(C(=O)O)cc4)c32)cc(OC)c1 [Entry 14] , what EP4 Ki was observed with EP4 (Homo sapiens (Human), UniProt P35408)?
Response: 1490

Prompt: Given the entry O=C(O)c1ccc(CCc2cccc3c2N(Cc2ccc4c(c2)OCO4)CC3)cc1 [Entry 8] , what EP4 Ki was observed with EP4 (Homo sapiens (Human), UniProt P35408)?
Response: 453

Prompt: Given the entry O=C(O)c1ccc(CCc2cccc3c2N(Cc2ccc4ccccc4c2)CC3)cc1 [Entry 6] , what EP4 Ki was observed with EP4 (Homo sapiens (Human), UniProt P35408)?
Response: 174

Prompt: Given the entry COc1cc(CC2CCc3cccc(CCc4ccc(C(=O)O)cc4)c32)cc(OC)c1 (stereo not drawn) [Entry 1] , what EP4 Ki was observed with EP4 (Homo sapiens (Human), UniProt P35408)?
Response: 3

Prompt: Given the entry COc1ccc(CC2=CCc3cccc(CCc4ccc(C(=O)O)cc4)c32)cc1OC [Entry 7] , what EP4 Ki was observed with EP4 (Homo sapiens (Human), UniProt P35408)?
Response: 34

Prompt: Given the entry COc1cc(CC2=CCc3cccc(C#Cc4ccc(C(=O)O)cc4)c32)cc(OC)c1 [Entry 24] , what EP4 Ki was observed with EP4 (Homo sapiens (Human), UniProt P35408)?
Response: 3600

Prompt: Given the entry COc1ccc(OC)c(CC2=CCc3cccc(CCc4ccc(C(=O)O)cc4)c32)c1 [Entry 4] , what EP4 Ki was observed with EP4 (Homo sapiens (Human), UniProt P35408)?
Response: 52

Prompt: Given the entry COc1cc(CC2=CCCc3cccc(CCc4ccc(C(=O)O)cc4)c32)cc(OC)c1 [Entry 3] , what EP4 Ki was observed with EP4 (Homo sapiens (Human), UniProt P35408)?
Response: 90
